All values here come from PubChem BioAssay AID1033.

molecular target: Chaperone protein DnaK (Escherichia coli (strain K12)); test: binders of DnaK substrate-binding domain, biophysical, NMR, chaperone (AID 1033); conditions: Purified DnaK SBD, NMR ligand binding
Calls of active or inactive are those of the source. The rule behind the calls is not given here.
REPORTED PROPERTY: Kd

Field Kd (system: Chaperone protein DnaK (Escherichia coli (strain K12))) for entry `O=C(NCN1CCOCC1)c1cnccn1` = > 4 mM (inactive)

Item `CCOCC(=O)N1CCc2ccccc21` was tested on Chaperone protein DnaK (Escherichia coli (strain K12)); the reported Kd is > 4 mM (inactive)

Observed Kd, Chaperone protein DnaK (Escherichia coli (strain K12)), C[C@@H]1C(=O)OC2[C@H](O)C34[C@@H]5OC(=O)[C@@]3(O[C@@H]3OC(=O)[C@H](O)[C@@]34[C@H](C(C)(C)C)[C@H]5O)[C@]21O (stereo partly specified) : > 4 mM (inactive)

Bench note, Chaperone protein DnaK (Escherichia coli (strain K12)): entry `NC(=O)CC[C@H](N)C(=O)O` , its Kd = > 4 mM (inactive)

`Cc1ccc(-c2c(C)n([O-])c3c([n+]2=O)CCCC3)o1` on Chaperone protein DnaK (Escherichia coli (strain K12)) gives Kd = > 4 mM (inactive)

Entry `O=C(Nc1ccon1)c1ccc(Cl)s1` , tested on Chaperone protein DnaK (Escherichia coli (strain K12)), has a reported Kd of > 4 mM (inactive)
